test system: MOLT-4 leukemia; test: NCI tumour cell line growth inhibition, 48 h
The following molecules are shown together with reported TGI values.

molecule | TGI
NS(=O)(=O)c1ccc(N(/C=C/C(=O)C(F)(F)F)Cc2ccc(Cl)cc2)cc1 | > 100 µM
C=C(C(=C)N1N=NC2C3CCC(C3)C21)N1N=NC2C3CCC(C3)C21 (stereo not given) | > 100 µM
COC(=O)C1Cc2ccc3c(c2C1=O)CCCC3 (stereo not given) | > 100 µM
C=C1C(=O)OC2C3C(=C)[C@@H](OC(C)=O)CC3C(C)=CC(OC(=O)C(C)(OC(C)=O)C(C)OC(C)=O)[C@@H]12 (stereo not given in full) | 52.2 µM
N#Cc1cc(S(=O)(=O)Nc2nnc(-c3ccccc3)c(-c3ccccc3)n2)c(SCc2ccccc2)cc1Cl | > 100 µM

Tell me reported TGI for COC(=O)C(C(=O)C(=O)Nc1cccc([N+](=O)[O-])c1)c1nc2ccc([N+](=O)[O-])cc2[nH]c1=O (stereo not given) , tested with MOLT-4 leukemia.
> 100 µM

Can you look up TGI on MOLT-4 leukemia for CC(=O)OCC(C)(COC(C)=O)N1C(=O)C2C3c4ccccc4C(c4ccccc43)C2C1=O (stereo not given) ?
> 100 µM

Value wanted: TGI (MOLT-4 leukemia) of entry `CCN(CCCl)c1cc(CN(C)C)cc(NC(=O)C23CCC(C(=O)Nc4cc(CN(C)C)cc(N(CC)CCCl)c4)(CC2)CC3)c1`
0.503 µM

Record lookup: for MOLT-4 leukemia, what TGI belongs to `COC(=O)c1cc2c3ccccc3[nH]c2c2sccc12` ?
> 100 µM

Record `C/C=C(\CCOS(=O)(=O)c1ccc(C)cc1)[Si](C)(C)C` : what is its TGI with MOLT-4 leukemia?
> 100 µM

Notebook entry, MOLT-4 leukemia assay: TGI of `CCOC(=O)c1cnc2sc3ccc4ccccc4c3n2c1=O` = ?
> 100 µM

---

system: SNB-75 CNS; assay: NCI tumour cell line growth inhibition, 48 h
Quick reference for TGI among some compounds
Note: unit µM is implicit; provide only the numeric part.

Example compounds with recorded TGI:
compound | TGI [µM]
CCCCNC(=O)C1C2CCC(O2)C1C(=O)O (stereo unspecified) | 52.1
CSc1nc2c(c(N3CCOCC3)n1)C(O)n1c(nc3ccccc31)S2 (stereo unspecified) | 81.9
N#CC1(C#N)C2C=CC(c3coc4cccc2c34)C1(C#N)C#N (stereo unspecified) | 35.3

Give its TGI value. Item: `Oc1c(Br)cc(/C=C/c2cccc(/C=C/c3cc(Br)c(O)c(Br)c3)n2)cc1Br`
31.6

Which TGI is listed for CCCCCCCCCCCCCCCCOP(=O)(O)OCC(NC(C)=O)C(=O)O (stereo unspecified) ?
98.2

What does the record list as TGI for C=C1C(=O)OC2C3C(=C)[C@@H](OC(C)=O)CC3C(C)=CC(OC(=O)C(C)(OC(C)=O)C(C)OC(C)=O)[C@@H]12 (stereo partly specified) ?
37.1

GET /values?readout=TGI&item= CC([C@H]1CCC2C3CCC4C[C@@H](N)CC[C@]4(C)C3CC[C@@]21C)N(C)C (stereo partly specified)
24.9

Which TGI is reported for this compound? `CO/N=C(\COc1ccc2oc(-c3ccccc3)cc(=O)c2c1)c1ccc(OC)cc1`
54.5

Item `CN(Cc1cc(Br)cc(Br)c1O)Cc1c(O)ccc2ccccc12` has what recorded TGI?
39.1

Could you tell me which TGI is on file for `Cc1ccc(NC(=O)CSc2nnc3n(Cc4ccccc4)c(=O)c4c(C)c(C(N)=O)sc4n23)cc1` ?
23.8
